// inhibition lookup, one value per entry
biological target: Hexose transporter 1 (Plasmodium falciparum) (UniProt O97467); experiment: ST_JUDE_LEISH: Cytotoxicity at 2uM final concentration against transgenic Leishmania Mexicana promastigotes LmPfHT that are glucose transport deficient and complemented with the Plasmodium falciparum hexose transporter. Activity is measured by DNA content using SYBR green in vitro; format: functional
Provide only the numeric value, understood in %.

Cc1cc(NC(=O)Nc2cccc(N(C)C)c2)c2ccccc2n1 : 2.59

[Q] Enter reported inhibition observed with Hexose transporter 1 (Plasmodium falciparum) (UniProt O97467) for CC(=O)Nc1ncc(C(=O)Nc2cccc(-c3cccc(-c4nc5cc(F)ccc5[nH]4)c3)c2)s1
[A] 2.62

[Q] Request body: readout inhibition, system Hexose transporter 1 (Plasmodium falciparum) (UniProt O97467), query CN(C)CCC=C1c2ccccc2Sc2c(O)cc(Cl)cc21 . Return the value.
[A] 4.06

[Q] Item COc1ccc2[nH]ccc(=NN=Cc3ccc(F)cc3)c2c1 with Hexose transporter 1 (Plasmodium falciparum) (UniProt O97467) - inhibition?
[A] -0.63
